# subject.of.test: human GLP-1 receptor (human, UniProt P43220 24-463)
Square brackets hold non-standard residues; d marks the D form. Ends that are not written are not given here. Asp(3,3-Me2) = CC(C)(C(=O)O)[C@H](N)C(=O)O
measure.name: pIC50
// pIC50 here means minus log10 of the molar concentration (mol/L)

Task item: I would be grateful if you could share the reported pIC50 for HA[Asp(3,3-Me2)]GTFTSDVSSYLEGQAAKEFIAWLVKGRPSSGAPPPS (ends and bridges not checked) [P1732] .
Reply: 8.60
